Target protein (sequence): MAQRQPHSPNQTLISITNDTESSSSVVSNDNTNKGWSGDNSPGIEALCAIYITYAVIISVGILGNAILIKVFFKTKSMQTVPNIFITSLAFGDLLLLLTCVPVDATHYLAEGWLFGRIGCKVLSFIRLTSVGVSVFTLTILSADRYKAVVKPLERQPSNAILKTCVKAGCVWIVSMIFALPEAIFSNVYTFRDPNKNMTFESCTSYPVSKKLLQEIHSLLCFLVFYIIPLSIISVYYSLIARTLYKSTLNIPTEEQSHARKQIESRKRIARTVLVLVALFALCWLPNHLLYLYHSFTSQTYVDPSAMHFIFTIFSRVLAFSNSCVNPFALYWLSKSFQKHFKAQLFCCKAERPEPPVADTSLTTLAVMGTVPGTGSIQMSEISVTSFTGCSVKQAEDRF
Friendly reminder: IC50 below 80 nM is y, at or above is n.

compound=CCC(C)(C)Cc1c[nH]c(CCc2ccc(N3CCCC[C@@H]3C(=O)O)cc2)n1 answer_label=y
compound=CCC(C)(C)Cc1cnc(CCc2ccc(-c3ccccc3OCc3cnn[nH]3)cc2)[nH]1 answer_label=n
compound=CCC(C)(C)Cc1c[nH]c(CCc2ccc(-c3ccccc3OCc3nnc[nH]3)cc2)n1 answer_label=y
compound="O=C1NC(=O)C(c2ccccc2-c2ccc(CCC3N=CC(CC4CCCC4)=N3)cc2)S1 (configuration not stated)" answer_label=n
compound=CCC(C)(C)Cc1c[nH]c(CCc2ccc(-c3ccccc3OCc3nc(=S)[nH][nH]3)cc2)n1 answer_label=y
compound=CCC(C)(C)Cc1c[nH]c(CCc2ccc(-c3ccccc3OCc3nc(C(F)(F)F)n[nH]3)cc2)n1 answer_label=n
compound=CCC(C)(C)Cc1c[nH]c(CCc2ccc(-c3ccccc3OCc3nc(N)n[nH]3)cc2)n1 answer_label=y

Hey, just so you know, these numbers are from ChEMBL document CHEMBL1157884.
